Origin of the recorded values: ChEMBL document CHEMBL1125053

molecular target: Voltage-gated L-type calcium channel (Homo sapiens, UniProt Q13936+Q13698+Q01668+O60840); experiment: In vitro vasorelaxant activity (calcium channel blocking activity) was determined with potassium-depolarized rabbit thoracic aorta; format: functional, tissue-based
readout_label: IC50 (nM)

[[record]]
compound = "CCCN1C(S)=NC(C)=C(C(=O)OCC)C1c1cccc([N+](=O)[O-])c1 (stereo not drawn)"
unit_abbreviation = "nM"
test_value = 50

[[record]]
compound = "CCOC(=O)N1C(=S)N=C(C)/C(=C(/O)OC(C)C)[C@H]1c1cccc([N+](=O)[O-])c1"
unit_abbreviation = "nM"
test_value = 2

[[record]]
compound = "CCOC(=O)C1=C(C)NC(SC)=NC1c1cccc([N+](=O)[O-])c1 (stereo not drawn)"
unit_abbreviation = "nM"
test_value = 130

